target: IDH1 R132H (Homo sapiens (Human), UniProt O75874, R132H); experiment: Assays for IDH1 R132H Inhibitors (NADPH/aKG, resazurin detection); assay type: biochemical; details: IDH1 R132H enzyme, Table 2; read-out: IDHR132H Activity
Sequence (O75874 whole entry R132H): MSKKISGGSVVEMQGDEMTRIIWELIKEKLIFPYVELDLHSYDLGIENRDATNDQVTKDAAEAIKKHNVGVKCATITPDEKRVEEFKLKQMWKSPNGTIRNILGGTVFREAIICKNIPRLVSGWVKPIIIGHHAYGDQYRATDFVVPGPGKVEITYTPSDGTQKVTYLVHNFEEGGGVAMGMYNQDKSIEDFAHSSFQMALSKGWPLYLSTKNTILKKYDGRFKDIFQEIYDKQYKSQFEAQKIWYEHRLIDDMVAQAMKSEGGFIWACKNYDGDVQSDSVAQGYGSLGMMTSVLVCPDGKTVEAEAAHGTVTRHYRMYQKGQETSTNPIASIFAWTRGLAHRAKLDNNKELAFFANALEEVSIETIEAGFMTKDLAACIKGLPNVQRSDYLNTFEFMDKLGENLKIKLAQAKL

{"molecule": "CCC(=O)N1CCN(c2nc(C3CCCCC3)c3c(c2C#N)CCOC3)C[C@H]1C", "studyTarget": "IDH1 R132H (Homo sapiens (Human), UniProt O75874, R132H)", "IC50": "1000 to 10000 nM"}
{"molecule": "CC(C)c1nc(N2CCN(C(=O)Cc3cccc(Cl)c3)[C@H](C)C2)c(C#N)c2c1COC(C)(C)C2", "studyTarget": "IDH1 R132H (Homo sapiens (Human), UniProt O75874, R132H)", "IC50": "1000 to 10000 nM"}
{"molecule": "C[C@@H]1CN(c2nc(C3CCCCC3)c3c(c2C#N)CCOC3)CCN1C(=O)c1nccn1C", "studyTarget": "IDH1 R132H (Homo sapiens (Human), UniProt O75874, R132H)", "IC50": "1000 to 10000 nM"}
{"molecule": "CC(C)[C@@H]1CN(c2nc(C3CC3)c3c(c2C#N)CC(C)(C)OC3)CCN1C(=O)Cn1nccn1", "studyTarget": "IDH1 R132H (Homo sapiens (Human), UniProt O75874, R132H)", "IC50": "500 to 1000 nM"}
{"molecule": "CC1CN(c2nc(C3CC3)c3c(c2C#N)CC(C)(C)OC3)CCN1C(=O)c1ccoc1 (stereo not shown)", "studyTarget": "IDH1 R132H (Homo sapiens (Human), UniProt O75874, R132H)", "IC50": "1000 to 10000 nM"}
{"molecule": "CNC(=O)N1CCN(c2nc(C3CCCCC3)c3c(c2C#N)CCOC3)C[C@H]1C", "studyTarget": "IDH1 R132H (Homo sapiens (Human), UniProt O75874, R132H)", "IC50": "1000 to 10000 nM"}
{"molecule": "CC(C)c1nc(N2CCN(C(=O)C(=O)c3ccccc3)[C@H](C)C2)c(C#N)c2c1COC(C)(C)C2", "studyTarget": "IDH1 R132H (Homo sapiens (Human), UniProt O75874, R132H)", "IC50": "1000 to 10000 nM"}
{"molecule": "CC(C)[C@@H]1CN(c2nc(C3CC3)c3c(c2C#N)CC(C)(C)OC3)CCN1C(=O)COC1CCOC1 (stereo partly shown)", "studyTarget": "IDH1 R132H (Homo sapiens (Human), UniProt O75874, R132H)", "IC50": "1000 to 10000 nM"}
{"molecule": "N#Cc1c(N2CCN(C(=O)c3ccc4cc[nH]c4c3)CC2)nc(C2CCCCC2)c2c1CCOC2", "studyTarget": "IDH1 R132H (Homo sapiens (Human), UniProt O75874, R132H)", "IC50": "1000 to 10000 nM"}
{"molecule": "CC1(C)Cc2c(C#N)c(N3CCN(C(=O)c4ccoc4)C(c4ccccc4)C3)nc(C3CC3)c2CO1 (stereo not shown)", "studyTarget": "IDH1 R132H (Homo sapiens (Human), UniProt O75874, R132H)", "IC50": "1000 to 10000 nM"}
{"molecule": "CC[C@@H]1CN(c2nc(C3CC3)c3c(c2C#N)CC(C)(C)OC3)CCN1C(=O)Cc1cccs1", "studyTarget": "IDH1 R132H (Homo sapiens (Human), UniProt O75874, R132H)", "IC50": "< 500 nM"}
{"molecule": "Cc1oncc1C(=O)N1CCN(c2nc(C(C)C)c3c(c2C#N)CC(C)(C)OC3)C[C@H]1C", "studyTarget": "IDH1 R132H (Homo sapiens (Human), UniProt O75874, R132H)", "IC50": "500 to 1000 nM"}
{"molecule": "CCOC(=O)C1CN(c2nc(C(C)C)c3c(c2C#N)CC(C)(C)OC3)CCN1C(=O)OC (stereo not shown)", "studyTarget": "IDH1 R132H (Homo sapiens (Human), UniProt O75874, R132H)", "IC50": "1000 to 10000 nM"}

====

biological target: IDH1 R132H (Homo sapiens (Human), UniProt O75874, R132H); test: Assays for IDH1 R132H Inhibitors (NADPH/aKG, resazurin detection); format: biochemical; settings: IDH1 R132H enzyme, Table 3; read-out: R132H IC50
Quick reference: IC50 of the listed items.
observable: IC50

{"compound": "CC(C)[C@@H]1CN(c2nc(C3CC3)c3c(c2C#N)CC(C)(C)OC3)CCN1C(=O)CC(F)(F)F [Compound 423]", "observable": "IC50", "val": "< 500 nM"}
{"compound": "C=CC(=O)N1CCc2c(C#N)c(N3CCN(C(=O)C4CC4)[C@H](C4CC4)C3)nc(C3CC3)c2C1 [Compound 489]", "observable": "IC50", "val": "< 500 nM"}
{"compound": "COCCC(=O)N1CCN(c2nc(C3CC3)c3c(c2C#N)CCN(CCO)C3)C[C@H]1C1CC1 [Compound 484]", "observable": "IC50", "val": "500 to 1000 nM"}

====

molecular target: IDH1 R132H (Homo sapiens (Human), UniProt O75874, R132H); assay: Assays for IDH1 R132H Inhibitors (NADPH/aKG, resazurin detection); format: biochemical; conditions: IDH1 R132H enzyme, Table 2; read-out: IDHR132H Activity
pIC50: −log10 of the molar value.

{"compound": "Cc1occc1C(=O)N1CCN(c2nc(C(C)C)c3c(c2C#N)CC(C)(C)OC3)C[C@H]1C(C)C [Compound 176]", "pIC50": "> 6.30"}
{"compound": "CC(C)c1nc(N2CCN(C(=O)Cc3cccnc3)[C@H](C)C2)c(C#N)c2c1COC(C)(C)C2 [Compound 248]", "pIC50": "5.00 to 6.00"}
{"compound": "CC(C)[C@@H]1CN(c2nc(C3CCCCC3)c3c(c2C#N)CCOC3)CCN1C(=O)c1ccco1 [Compound 182]", "pIC50": "5.00 to 6.00"}
{"compound": "CC(C)c1nc(N2CCN(C(=O)c3cscn3)[C@H](C)C2)c(C#N)c2c1COC(C)(C)C2 [Compound 252]", "pIC50": "5.00 to 6.00"}
{"compound": "CC[C@@H]1CN(c2nc(C(C)C)c3c(c2C#N)CC(C)(C)OC3)CCN1C(=O)Cc1cccs1 [Compound 206]", "pIC50": "> 6.30"}
{"compound": "CCOC(=O)C1CN(c2nc(C(C)C)c3c(c2C#N)CC(C)(C)OC3)CCN1C(=O)OCCOC (stereo not drawn) [Compound 329]", "pIC50": "5.00 to 6.00"}
{"compound": "CC1(C)Cc2c(C#N)c(N3CCN(C(=O)c4ccco4)[C@@H](c4ccccc4)C3)nc(C3CC3)c2CO1 [Compound 273]", "pIC50": "6.00 to 6.30"}
{"compound": "CC(C)c1nc(N2CCN(C(=O)c3ccco3)C(C)C2)c(C#N)c2c1CCCC2 (stereo not drawn) [Compound 125]", "pIC50": "5.00 to 6.00"}
{"compound": "Cc1ccoc1C(=O)N1CCN(c2nc(C(C)C)c3c(c2C#N)CC(C)(C)OC3)C[C@H]1C [Compound 173]", "pIC50": "5.00 to 6.00"}
{"compound": "CC(C)c1nc(N2CCN(C(=O)c3cccs3)[C@H](C)C2)c(C#N)c2c1COC(C)(C)C2 [Compound 246]", "pIC50": "5.00 to 6.00"}
{"compound": "CC1(C)Cc2c(C#N)c(N3CCN(C(=O)c4ccoc4)C(C)(C)C3)nc(C3CC3)c2CO1 [Compound 318]", "pIC50": "5.00 to 6.00"}
{"compound": "Cc1occc1C(=O)N1CCN(c2nc(C(C)C)c3c(c2C#N)CCOC3)CC1 [Compound 113]", "pIC50": "5.00 to 6.00"}
{"compound": "CC(C)[C@@H]1CN(c2nc(C3CC3)c3c(c2C#N)CC(C)(C)OC3)CCN1S(=O)(=O)c1cccs1 [Compound 284]", "pIC50": "5.00 to 6.00"}
{"compound": "C[C@@H]1CN(c2nc(C3CCCCC3)c3c(c2C#N)CCOC3)CCN1C(=O)c1cccs1 [Compound 241]", "pIC50": "5.00 to 6.00"}
{"compound": "COc1ccc(NC(=O)N2CCN(c3nc(C4CC4)c4c(c3C#N)CC(C)(C)OC4)C[C@H]2C(C)C)cc1 [Compound 316]", "pIC50": "5.00 to 6.00"}
{"compound": "CC(C)c1nc(N2CCN(C(=O)c3cocn3)[C@H](C)C2)c(C#N)c2c1COC(C)(C)C2 [Compound 198]", "pIC50": "5.00 to 6.00"}
{"compound": "CC(C)[C@@H]1CN(c2nc(C3CC3)c3c(c2C#N)CC(C)(C)OC3)CCN1C(=O)COc1cccnc1 [Compound 399]", "pIC50": "5.00 to 6.00"}
{"compound": "CC(C)c1nc(N2CCN(C(=O)c3ccco3)C(c3ccccc3)C2)c(C#N)c2c1COC(C)(C)C2 (stereo not drawn) [Compound 154]", "pIC50": "6.00 to 6.30"}
{"compound": "CSCCC(=O)N1CCN(c2nc(C(C)C)c3c(c2C#N)CC(C)(C)OC3)C[C@H]1C [Compound 267]", "pIC50": "6.00 to 6.30"}
{"compound": "CC(C)c1nc(N2CCN(C(=O)c3ccco3)[C@H](C)C2)c(C#N)c2c1COCC2 [Compound 139]", "pIC50": "5.00 to 6.00"}
{"compound": "CCOC(=O)N1CCN(c2nc(C3CCCCC3)c3c(c2C#N)CCOC3)C[C@H]1C [Compound 358]", "pIC50": "5.00 to 6.00"}
{"compound": "CC(C)[C@@H]1CN(c2nc(C3CC3)c3c(c2C#N)CC(C)(C)OC3)CCN1C(=O)c1cnn2cccnc12 [Compound 232]", "pIC50": "5.00 to 6.00"}
{"compound": "COc1cccc(CC(=O)N2CCN(c3nc(C(C)C)c4c(c3C#N)CC(C)(C)OC4)C[C@H]2C(C)C)c1 [Compound 233]", "pIC50": "5.00 to 6.00"}
{"compound": "CC(C)COC(=O)N1CCN(c2nc(C3CC3)c3c(c2C#N)CC(C)(C)OC3)C[C@H]1C(C)C [Compound 339]", "pIC50": "5.00 to 6.00"}

// provenance: patent US9662327B2
